# target: human P2X7 channel (Homo sapiens, UniProt Q99572)
# Sequence (Q99572 whole entry): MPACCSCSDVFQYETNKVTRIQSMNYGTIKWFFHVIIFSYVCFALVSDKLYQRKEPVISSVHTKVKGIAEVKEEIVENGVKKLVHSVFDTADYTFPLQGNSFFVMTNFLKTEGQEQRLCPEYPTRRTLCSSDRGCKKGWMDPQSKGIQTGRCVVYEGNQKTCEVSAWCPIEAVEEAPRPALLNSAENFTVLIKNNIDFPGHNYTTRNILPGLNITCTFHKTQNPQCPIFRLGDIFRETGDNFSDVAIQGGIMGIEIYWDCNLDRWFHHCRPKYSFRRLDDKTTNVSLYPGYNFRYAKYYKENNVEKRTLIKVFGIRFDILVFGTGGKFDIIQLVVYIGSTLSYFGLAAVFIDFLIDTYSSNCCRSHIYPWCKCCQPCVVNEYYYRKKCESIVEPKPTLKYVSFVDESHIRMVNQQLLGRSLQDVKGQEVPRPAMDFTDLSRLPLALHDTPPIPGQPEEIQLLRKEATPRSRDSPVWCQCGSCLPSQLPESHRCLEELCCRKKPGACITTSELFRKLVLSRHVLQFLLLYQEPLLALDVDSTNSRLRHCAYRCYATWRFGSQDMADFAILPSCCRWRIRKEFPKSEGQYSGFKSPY
# procedureDetails: human P2X7 channel assay by automated patch-clamp (QPatch 16X)
# recordedConditions: HEK-293 cells expressing P2X7; current evoked by 100 microM BzATP; whole-cell, held at -80 mV; read-out: human Q-Patch (activity range)
pIC50: −log10 of the molar value.
Can you tell me pIC50 for the items I'm about to list?

Use the examples below as a reference point.
Cn1nc(Cc2c(F)cccc2Cl)n(CC2(C)CCCCCC2)c1=O : 5.00 to 6.00
Cn1nc(Cc2ccccc2C(F)(F)F)n(CCC2CCC(C)(C)CC2)c1=O : 5.00 to 6.00

Hey, can you go through the list below and give me pIC50 for every item?
1. O=c1n(CC2CC2)nc(Cc2c(F)cccc2Cl)n1CC1CCC(C(F)(F)F)CC1 (centres unmarked)
2. Cn1nc(Cc2ccccc2C(F)(F)F)n(CC2CCC(C(F)(F)F)CC2)c1=O (centres unmarked)
3. Cn1nc(Cc2c(F)cccc2Cl)n(CC2CCCCC2(C)C)c1=O (centres unmarked)
4. Cn1nc(Cc2ccc(F)cc2Cl)n(CC2CCC3(CC2)CC3)c1=O
5. O=c1n(CC(F)(F)F)nc(CC2CCC(F)(F)CC2)n1Cc1c(F)cccc1Cl

## Output
1. 7.00 to 8.00
2. 6.00 to 7.00
3. 7.00 to 8.00
4. 6.00 to 7.00
5. 6.00 to 7.00

Hey, can you go through the list below and give me pIC50 for every item?
1. O=c1n(CC(F)(F)F)nc(Cc2ccccc2Cl)n1CC1CCC(F)(F)CC1
2. Cn1nc(Cc2ccccc2C(F)(F)F)n(CC2CCC(F)(F)C2)c1=O (centres unmarked)
3. Cn1nc(Cc2ccccc2C(F)(F)F)n(CCC2CCC(F)(F)CC2)c1=O
4. O=c1n(CC(F)(F)F)nc(CC2CCCCCC2)n1Cc1c(F)cccc1Cl

## Output
1. > 8.00
2. 6.00 to 7.00
3. 6.00 to 7.00
4. 6.00 to 7.00

Hey, can you go through the list below and give me pIC50 for every item?
1. O=c1n(CC(F)F)nc(Cc2c(F)cccc2Cl)n1CC1CCC(F)(F)CC1
2. O=c1n(CC2CC2)nc(Cc2c(F)cccc2Cl)n1CC1CCC(F)(F)C1 (centres unmarked)
3. Cn1nc(Cc2ccccc2C(F)(F)F)n(CC2CCC3(CC2)CC3)c1=O
4. Cn1nc(Cc2ccccc2F)n(CCC2CCC(F)(F)CC2)c1=O
5. Cn1nc(Cc2ccccc2F)n(CC2CCC(F)(F)CC2)c1=O

## Output
1. 7.00 to 8.00
2. 6.00 to 7.00
3. 6.00 to 7.00
4. 5.00 to 6.00
5. 6.00 to 7.00

* * *

Can you tell me IC50 for the items I'm about to list?
# target: humanP2X7 (Homo sapiens, UniProt Q99572)
# Sequence (Q99572 whole entry): as above
# procedureDetails: P2X7 channel calcium-influx assay (Fluo-8, FLIPR TETRA), human P2X7
# recordedConditions: HEK-293 cells stably transfected with P2X7; Bz-ATP at EC80; low divalent cation buffer; read-out: humanP2X7 (activity range)

Use the examples below as a reference point.
Cn1nc(Cc2ccc(F)cc2Cl)n(CC2CCCCCC2)c1=O : < 200 nM
Cn1nc(Cc2c(F)cccc2Cl)n(CC2CCC(C(F)(F)F)CC2)c1=O (centres unmarked) : < 200 nM
Cn1nc(Cc2ccc(F)cc2Cl)n(CC2CCC(F)(F)C2)c1=O (centres unmarked) : 10000 to 30000 nM
Cn1nc(Cc2c(F)cccc2Cl)n(CCN2CCOCC2)c1=O : 10000 to 30000 nM
O=c1n(CC(F)(F)F)nc(Cc2c(F)cccc2Cl)n1CC1CCC(F)(F)CC1 : < 200 nM
CCn1nc(Cc2ccccc2Cl)n(CC2CCC(F)(F)CC2)c1=O : < 200 nM

Hey, can you go through the list below and give me IC50 for every item?
1. Cn1nc(Cc2ccc(F)cc2Cl)n(CCC2CCC(C)(C)CC2)c1=O
2. Cn1nc(Cc2c(F)cccc2Cl)n(CC2CC3C(C2)C3(F)F)c1=O (centres unmarked)
3. Cn1nc(Cc2c(F)cccc2Cl)n(CC2CCC(F)CC2)c1=O (centres unmarked)
4. Cn1nc(Cc2ccccc2C(F)(F)F)n(CCC2CCC(C)(C)CC2)c1=O
5. Cn1nc(Cc2c(F)cccc2Cl)n(CC2CCCCC2(C)C)c1=O (centres unmarked)

## Output
200 to 1000 nM
200 to 1000 nM
200 to 1000 nM
1000 to 10000 nM
< 200 nM

Cited source: patent US20240368092A1
